Tested on: Fibroblast
Assay: Incucyte cell viability with human fibroblast; further: unitless GR value; below 1 slowed growth and below 0 cell loss
Type: toxicity, cell-based
Conditions: 24 h, 10 µM, compound concentration 10 uM, replicate number 1

# Compound, Growth Rate
measured = [
    ("Cc1sc(C(=O)c2cncnc2N[C@@H]2C[C@H](COS(N)(=O)=O)[C@@H](O)C2)cc1[C@@H]1NCCc2ccc(Cl)cc21", 0.47),
    ("CCCCc1oc2ccccc2c1C(=O)c1cc(I)c(OCCN(CC)CC)c(I)c1.Cl [AMIODARONE HYDROCHLORIDE]", -0.01),
    ("CN(C)CCOc1ccc(/C(=C(/CCCO)c2ccccc2)c2ccc(O)cc2)cc1", 0.02),
    ("CN(C)[C@H]1CC[C@H](Nc2ncc3ncnc(Nc4ccc(F)c(Cl)c4)c3n2)CC1", 0.14),
]

----------
System: U2OS
Assay: Incucyte cell viability with U2OS; further: unitless GR value; below 1 slowed growth and below 0 cell loss
Assay type: toxicity, cell-based
Conditions: human, 18 h, 10 µM, compound concentration 10 uM, replicate number 1
The label is True for Growth Rate below 0.9 and False for Growth Rate equal to or exceeding 0.9.

# Molecule, Target Of Assay, Answer Label
data = [
    ("COC(=O)c1sccc1S(=O)(=O)Nc1ccc(Nc2ccccc2)cc1OC", "U2OS", "True"),
    ("CC(C)(C)c1cnc(CSc2cnc(NC(=O)C3CCNCC3)s2)o1 [BMS-387032]", "U2OS", "True"),
    ("COc1ccc(-c2cc3c(C)nc(N)nc3n([C@H]3CC[C@H](OCCO)CC3)c2=O)cn1 [PF-04691502]", "U2OS", "True"),
    ("CC(C)CNc1nc(N2CCN(CC3CCCOC3)CC2)ncc1C(=O)NCc1ccccc1 (centres undefined)", "U2OS", "False"),
    ("CC(=O)Nc1ncc(CN2CCC[C@H](Cc3cc(C)nc(C)c3)C2)s1 [JNJ-65355394]", "U2OS", "False"),
    ("O=S(=O)(Nc1ccc(C(O)(C(F)(F)F)C(F)(F)F)cc1)c1cccs1", "U2OS", "True"),
    ("Cn1nc(-c2ccc(C(N)=O)cc2)c2ccccc2c1=O", "U2OS", "False"),
]

----------
Test system: HEK-293T
Assay: Incucyte cell viability with HEK293T; further: unitless GR value; below 1 slowed growth and below 0 cell loss
Type: toxicity, cell-based
Settings: human, 0 h, 10 µM, compound concentration 10 uM, replicate number 2
The label is TRUE for Growth Rate below -0.6 and FALSE for Growth Rate equal to or exceeding -0.6.

# Compound, Answer Label
records = [
    ("Cc1ccc(NS(=O)(=O)c2ccc3c(c2)C2C=CCC2C(c2ccc(C(=O)O)cc2)N3)cc1C (configuration not stated)", "TRUE"),
    ("C[C@@H](CN1CC[C@@]2(C)c3cccc(O)c3C[C@@H]1C2(C)C)OCc1ccccc1.Cl", "FALSE"),
    ("CC1(C)C(=O)N([C@H]2CCc3c(O)cccc32)c2nc(Nc3cccc(CN4CCCC4)c3)ncc21", "TRUE"),
    ("Cc1c(CCC(=O)O)cccc1NC(=O)[C@@H](c1ccc(-c2cncc(Cl)c2)c(F)c1)C1CCCC1", "FALSE"),
    ("O=C(Nc1ccc(C(O)(C(F)(F)F)C(F)(F)F)cc1)c1ccc(C(F)(F)F)cc1", "FALSE"),
    ("CC(C)S(=O)(=O)c1ccccc1Nc1nc(N[C@@H]2CCCN(CCCCCCCNC(=O)COc3cccc4c3C(=O)N(C3CCC(=O)N(C)C3=O)C4=O)C2)ncc1Cl (some centres not stated)", "TRUE"),
    ("CO[C@H](C)CN1CC[C@@]2(C)c3ccc(O)cc3C[C@@H]1C2(C)C.Cl", "FALSE"),
    ("CC1(C)CCN(C(=O)C2CN(c3c4c(nc5ccnn35)CCNCC4)C2)C1.O=C(O)C(F)(F)F", "FALSE"),
    ("COc1cc(C(N)=O)ccc1Nc1ncc2c(n1)N(CCC(C)C)[C@H](C)C(=O)N2C", "TRUE"),
    ("CC(C)(C)OC(=O)CN1C(=O)c2c(OCC(=O)O)cccc2Oc2ccc(C(F)(F)F)cc21", "TRUE"),
    ("C=C1/C(=C\\C=C2/CCC[C@]3(C)[C@@H]([C@H](C)CCCC(C)(C)O)CC[C@@H]23)C[C@@H](O)C[C@@H]1O [CALCITRIOL]", "TRUE"),
    ("CN1C(=O)c2c(nn(Cc3ccc(-c4cccc(F)n4)cc3)c2Nc2ccccc2)N2C1=N[C@@H]1CCC[C@@H]12.O=P(O)(O)O [LENRISPODUN PHOSPHATE]", "FALSE"),
    ("Cc1cc(-c2nncc3c(C(C)(C)C)c(OCc4ncnn4C)nn23)no1", "FALSE"),
    ("CC(=O)c1ccc2c(c1)/C(=C(/NC1CCN(C)CC1)c1ccc3c(c1)OCO3)C(=O)N2", "FALSE"),
    ("C[C@@H]1Cc2c([nH]c3ccccc23)[C@@H](c2c(F)cc(/C=C/C(=O)O)cc2F)N1CC(C)(C)F [AZD-9496]", "FALSE"),
    ("Cc1[nH]nc2ccc(-c3cncc(OCC(N)Cc4c[nH]c5ccccc45)c3)cc12 (configuration not stated)", "FALSE"),
    ("O=C(NCc1cccc(O)c1)Nc1nc(-c2ccncc2)cs1", "TRUE"),
]

----------
Test system: Fibroblast
Test: Incucyte cell viability with human fibroblast; further: unitless GR value; below 1 slowed growth and below 0 cell loss
Format: toxicity, cell-based
Conditions: 24 h, 10 µM, compound concentration 10 uM, replicate number 2

# Molecule, Growth Rate
data = [
    ("Cc1c(CN2CCC3(CC2)CN(c2ncnc4sc(CC(F)(F)F)cc24)C3)ccc2c1cc(C#N)n2CC(N)=O", 0.09),
    ("Cn1cc(-c2ccc3occ(-c4cccc(-c5ccncc5)c4)c3n2)cn1", 0.73),
    ("CC[C@@H]1C(=O)N(C)c2cnc(Nc3ccc(C(=O)NC4CCN(C)CC4)cc3OC)nc2N1C1CCCC1", 0.46),
    ("N[C@H](C(=O)O)[C@@H]1CC(Cl)=NO1", 0.56),
    ("c1ccc2nc(N3CCNCC3)ccc2c1", 0.58),
    ("COc1cc(C(=O)NCCOCCOCCOCC(=O)N[C@H](C(=O)N2C[C@H](O)C[C@H]2C(=O)NCc2ccc(-c3scnc3C)cc2)C(C)(C)C)ccc1Nc1ncc(C(F)(F)F)c(Oc2cccc3c2C(=O)CC3)n1", 0.84),
    ("O=C(NS(=O)(=O)N1CCC1)c1cc(C2CC2)c(OCC23CC4CC(CC(C4)C2)C3)cc1F", 0.37),
    ("O=C(Nc1ccc(C(O)(C(F)(F)F)C(F)(F)F)cc1)c1ccc(C(F)(F)F)cc1", 0.07),
    ("CC(=O)N1CCN(c2ccc(OCC3COC(Cn4ccnc4)(c4ccc(Cl)cc4Cl)O3)cc2)CC1 (centres undefined)", 0.89),
]

----------
Test system: HEK-293T
Test: Incucyte cell viability with HEK293T; further: unitless GR value; below 1 slowed growth and below 0 cell loss
Type: toxicity, cell-based
Details: human, 6 h, 10 µM, compound concentration 10 uM, replicate number 2
Param threshold (0.3) applies to Growth Rate; output 1 when value >= threshold, 0 when value < threshold.

# Compound, Answer Label
rows = [
    ("Cc1nccn1-c1ccc(Sc2cccc(C3(C(N)=O)CCOCC3)c2)cc1", 0),
    ("O=C1CCCc2[nH]c(-c3ccnc(NCC4CC4)c3)c(Nc3ccccc3)c21", 1),
    ("COc1ccc2nc3ccc(OC)cc3c(SCCCN)c2c1.Cl", 0),
    ("CCN1/C(=C/C(C)=O)Sc2ccc(OC(C)=O)cc21", 0),
    ("COc1ccc(CC(=O)NC(N/C(=N/C#N)Nc2cccc3ncccc23)C(C)(C)C)cc1OC (centres undefined)", 1),
    ("CC(C)(C)c1ccc2c(c1)CC[C@H]2NC(=O)Nc1cccc2[nH]ncc12", 1),
    ("CN1CCN(C(=O)c2ccc(N(C)c3ncc(C(F)(F)F)c(N[C@@H]4CCC[C@@H]4C(N)=O)n3)cc2)CC1.Cl", 1),
    ("CCC(=O)O[C@]1(C(=O)CCl)[C@@H](C)C[C@H]2[C@@H]3CCC4=CC(=O)C=C[C@]4(C)[C@@]3(F)[C@@H](O)C[C@@]21C [CLOBETASOL PROPIONATE]", 1),
    ("Nc1nccc(-c2c(-c3ccc(F)cc3)ncn2C2CCN(Cc3ccon3)CC2)n1", 1),
    ("COc1cc(-c2cn(C)c(=O)c3cnccc23)c(OC)cc1CN(C)C", 0),
    ("CNc1nc(Nc2ccc(C(=O)N3CCOCC3)cc2OC)ncc1Cl", 1),
    ("CC(C)c1nc2c(c3c1[C@@H](c1ccc(C(F)(F)F)cc1)OC31CCOCC1)[C@@H](O)CC(C)(C)C2.Cl", 0),
    ("CCOC(=O)C1Cc2ccccc2CN1C(=O)c1ccc(SC)s1 (centres undefined)", 0),
    ("Cc1onc(O)c1CC(N)C(=O)O [(R,S)-AMPA]", 0),
    ("COCc1c(-c2cc3cc(C)cc(OC)c3s2)c2c(N)ncnn2c1CN[C@@H]1CCNC1=O", 1),
    ("CCOc1ccccc1C(=O)NCC1(N2CCN(CC)CC2)CCCCC1", 0),
    ("Cc1cc(C(C#N)c2ccc(Cl)cc2)c(Cl)cc1NC(=O)c1cc(I)cc(I)c1O (centres undefined)", 1),
    ("Cn1cc(-c2ccc3occ(-c4cccc(-c5ccncc5)c4)c3n2)cn1", 0),
    ("CC(C)(O)c1cnc(N2C[C@@]3(CCC[C@](C)(Cn4cnc5ccc(C#N)cc54)C3)OC2=O)cn1", 0),
    ("CCC(=O)Nc1cc(Nc2cc(NC3CC3)n3ncc(C#N)c3n2)ccc1C", 1),
    ("CC[C@](C)(O)C#Cc1cc2c(ccn2-c2cc(OC)nc(N)n2)cn1", 1),
    ("N#Cc1cccc(-c2nc(-c3cccnc3)no2)c1", 0),
    ("Cc1cc([N+](=O)[O-])c(NS(=O)(=O)c2cccc(C(=O)O)c2)cc1-c1cccnc1", 1),
    ("O=C(O)c1ccnc(N2CC(O)(c3ccc(OCc4c(-c5c(Cl)cccc5Cl)noc4C4CC4)cc3Cl)C2)c1 [CILOFEXOR]", 1),
    ("O=C(Nc1cc(C(F)(F)F)ccc1N1CCCCC1)c1ccncc1", 1),
    ("NC(=O)c1ccc2[nH]c(-c3ccc(Oc4ccc(Cl)cc4)cc3)nc2c1", 0),
    ("CCn1c(-c2ccncc2)cc2c1CCNC2=O", 0),
    ("CCN1CCN(Cc2ccc(NC(=O)c3ccc(C)c(NC(=O)c4cncc(-c5cccs5)c4)c3)cc2C(F)(F)F)CC1", 0),
    ("COc1cc2ncnc(Nc3cccc(O)c3)c2cc1OC", 0),
    ("O=C(Cc1ccccc1)Nc1nnc(N2C[C@H]3C[C@@H]2CN3c2cccnn2)s1", 1),
    ("CN1CCC[C@H]1c1cccnc1", 1),
    ("CS(=O)(=O)c1ccc(-c2cnc(N)c(C(=O)Nc3ccccc3)n2)cc1", 0),
    ("CC(C)Oc1ccc(F)c(-c2cnc(N)c(C(=O)Nc3cnccc3N3CCC[C@@H](C(=O)O)C3)n2)c1", 1),
    ("Cc1ccc(-c2c(C(=O)CF)n(CCCO)c3ncnc(N)c23)cc1", 0),
    ("O=C(Nc1ccc(S(=O)(=O)Nc2nccs2)cc1)C(c1ccccc1)c1ccccc1", 1),
    ("NC(=O)c1ccc(-c2nc(-c3ccc4c(c3)OCCO4)c(-c3ccccn3)[nH]2)cc1", 1),
    ("CNc1nc(NCc2ncccn2)c2c(-c3ccc4ncccc4c3)c[nH]c2n1", 1),
    ("CNC(=O)COc1cc2cc(Nc3nc(N4CCC(C(=O)N(C)C)CC4)ncc3Cl)cc(OC)c2n(C)c1=O", 0),
    ("COC[C@@H](CC(C)C)NC1=N/C(=C\\c2ccc3ncsc3c2)C(=O)N1C", 1),
]
